- Test system: HCT116/VM46
- measurement_description: cells
- Assay type: cell-based, human
- condition_notes: Homo sapiens, HCT-116/VM46; Table 2B, C10′-substituted vinblastines, single evaluations; read-out: IC50 (nM) HCT116/VM46
endpoint_label: log10 IC50 (log10 of the value in nM)
# log10 transformed; quantity=IC50; unit=nM

# annotated cases, reported log10 IC50 shown
1) CC[C@]1(O)C[C@@H]2CN(CCc3c([nH]c4ccc(C)cc34)[C@@](C(=O)OC)(c3cc4c(cc3OC)N(C)C3C(O)(C(=O)OC)[C@H](OC(C)=O)[C@]5(CC)C=CCN6CC[C@]43[C@@H]65)C2)C1 (stereo partly shown) [Compound 21b, 10′-methylvinblastine] :: 2.78
2) CC[C@]1(O)C[C@@H]2CN(CCc3c([nH]c4ccc(Br)cc34)[C@@](C(=O)OC)(c3cc4c(cc3OC)N(C)C3C(O)(C(=O)OC)[C@H](OC(C)=O)[C@]5(CC)C=CCN6CC[C@]43[C@@H]65)C2)C1 (stereo partly shown) [Compound 17b, 10′-bromo-vinblastine] :: 2.43
3) CC[C@]1(O)C[C@@H]2CN(CCc3c([nH]c4ccc(I)cc34)[C@@](C(=O)OC)(c3cc4c(cc3OC)N(C)C3C(O)(C(=O)OC)[C@H](OC(C)=O)[C@]5(CC)C=CCN6CC[C@]43[C@@H]65)C2)C1 (stereo partly shown) [Compound 16b, 10′-iodovinblastine] :: 2.92
4) CC[C@]1(O)C[C@@H]2CN(CCc3c([nH]c4ccc(SC)cc34)[C@@](C(=O)OC)(c3cc4c(cc3OC)N(C)C3C(O)(C(=O)OC)[C@H](OC(C)=O)[C@]5(CC)C=CCN6CC[C@]43[C@@H]65)C2)C1 (stereo partly shown) [Compound 20b, 10′-thiomethylvinblastine] :: 2.87
5) CC[C@]1(O)C[C@@H]2CN(CCc3c([nH]c4ccc(F)cc34)[C@@](C(=O)OC)(c3cc4c(cc3OC)N(C)C3C(O)(C(=O)OC)[C@H](OC(C)=O)[C@]5(CC)C=CCN6CC[C@]43[C@@H]65)C2)C1 (stereo partly shown) [Compound 19b, 10′-fluorovinblastine] :: 1.90

Moving on to the next molecule.
**Query** Tell me the measured log10 IC50 of CC[C@]1(O)C[C@@H]2CN(CCc3c([nH]c4ccc(Cl)cc34)[C@@](C(=O)OC)(c3cc4c(cc3OC)N(C)C3C(O)(C(=O)OC)[C@H](OC(C)=O)[C@]5(CC)C=CCN6CC[C@]43[C@@H]65)C2)C1 (stereo partly shown) [Compound 18b, 10′-chlorovinblastine] , please.
**Result** 2.86

====

Catalogue of molecules with associated IC50
- Test system: L1210
- measurement_description: cells
- Assay type: cell-based, mouse
- condition_notes: Mus musculus, L1210; Table 2A, C10′-substituted anhydrovinblastines, single evaluations; read-out: IC50 (nM) L1210
// return numeric value only (unit: nM, not printed)

Past entries and their recorded results:
1) CCC1=C[C@@H]2CN(CCc3c([nH]c4ccc(Cl)cc34)[C@@](C(=O)OC)(c3cc4c(cc3OC)N(C)C3C(O)(C(=O)OC)[C@H](OC(C)=O)[C@]5(CC)C=CCN6CC[C@]43[C@@H]65)C2)C1 (stereo partly drawn) [Compound 18a, 10′-chloroanhydrovinblastine] :: 60
2) CCC1=C[C@@H]2CN(CCc3c([nH]c4ccc(OC)cc34)[C@@](C(=O)OC)(c3cc4c(cc3OC)N(C)C3C(O)(C(=O)OC)[C@H](OC(C)=O)[C@]5(CC)C=CCN6CC[C@]43[C@@H]65)C2)C1 (stereo partly drawn) [Compound 22a, 10′-methoxyanhydrovinblastine] :: 550
3) CCC1=C[C@@H]2CN(CCc3c([nH]c4ccc(Br)cc34)[C@@](C(=O)OC)(c3cc4c(cc3OC)N(C)C3C(O)(C(=O)OC)[C@H](OC(C)=O)[C@]5(CC)C=CCN6CC[C@]43[C@@H]65)C2)C1 (stereo partly drawn) [Compound 17a, 10′-bromoanhydrovinblastine] :: 65
4) CCC1=C[C@@H]2CN(CCc3c([nH]c4ccc(C)cc34)[C@@](C(=O)OC)(c3cc4c(cc3OC)N(C)C3C(O)(C(=O)OC)[C@H](OC(C)=O)[C@]5(CC)C=CCN6CC[C@]43[C@@H]65)C2)C1 (stereo partly drawn) [Compound 21a, 10′-methylanhydrovinblastine] :: 65
5) CCC1=C[C@@H]2CN(CCc3c([nH]c4ccc(I)cc34)[C@@](C(=O)OC)(c3cc4c(cc3OC)N(C)C3C(O)(C(=O)OC)[C@H](OC(C)=O)[C@]5(CC)C=CCN6CC[C@]43[C@@H]65)C2)C1 (stereo partly drawn) [Compound 16a, 10′-iodoanhydrovinblastine] :: 620

**Query** Checklist item: IC50 tested on L1210, entry CCC1=C[C@@H]2CN(CCc3c([nH]c4ccc(SC)cc34)[C@@](C(=O)OC)(c3cc4c(cc3OC)N(C)C3C(O)(C(=O)OC)[C@H](OC(C)=O)[C@]5(CC)C=CCN6CC[C@]43[C@@H]65)C2)C1 (stereo partly drawn) [Compound 20a, 10′-thiomethylanhydrovinblastine] , value?
**Result** 60

====

- Test system: L1210
- measurement_description: cells
- Assay type: cell-based, mouse
- condition_notes: Mus musculus, L1210; Table 1A, C16′-modified anhydrovinblastine analogues; read-out: IC50 (nM) L1210
endpoint_label: IC50 (nM)
Report as a plain number; the unit nM is understood.

1. CCOC(=O)[C@]1(c2cc3c(cc2OC)N(C)C2C(O)(C(=O)OC)[C@H](OC(C)=O)[C@]4(CC)C=CCN5CC[C@]32[C@@H]54)C[C@@H]2C=C(CC)CN(CCc3c1[nH]c1ccccc31)C2 (stereo partly shown) :: 620
2. CCC1=C[C@@H]2CN(CCc3c([nH]c4ccccc34)[C@@](C#N)(c3cc4c(cc3OC)N(C)C3C(O)(C(=O)OC)[C@H](OC(C)=O)[C@]5(CC)C=CCN6CC[C@]43[C@@H]65)C2)C1 (stereo partly shown) :: 6500

# context switch: different compound, same IC50
**Query** Query (compound): CCC1=C[C@@H]2CN(CCc3c([nH]c4ccccc34)[C@@](C=O)(c3cc4c(cc3OC)N(C)C3C(O)(C(=O)OC)[C@H](OC(C)=O)[C@]5(CC)C=CCN6CC[C@]43[C@@H]65)C2)C1 (stereo partly shown) ; field requested: IC50
**Result** 6300

====

- Tested on: HCT116/VM46
- measurement_description: cells
- Assay type: cell-based, human
- condition_notes: Homo sapiens, HCT-116/VM46; Table 2A, C10′-substituted anhydrovinblastines, single evaluations; read-out: IC50 (nM) HCT116/VM46
Could you please mark Condition met for values of IC50 below 900 nM and Condition not met for values at or above it?

1. CCC1=C[C@@H]2CN(CCc3c([nH]c4ccc(C)cc34)[C@@](C(=O)OC)(c3cc4c(cc3OC)N(C)C3C(O)(C(=O)OC)[C@H](OC(C)=O)[C@]5(CC)C=CCN6CC[C@]43[C@@H]65)C2)C1 (stereo partly drawn) [Compound 21a, 10′-methylanhydrovinblastine] :: Condition met
2. CCC1=C[C@@H]2CN(CCc3c([nH]c4ccc(I)cc34)[C@@](C(=O)OC)(c3cc4c(cc3OC)N(C)C3C(O)(C(=O)OC)[C@H](OC(C)=O)[C@]5(CC)C=CCN6CC[C@]43[C@@H]65)C2)C1 (stereo partly drawn) [Compound 16a, 10′-iodoanhydrovinblastine] :: Condition not met
3. CCC1=C[C@@H]2CN(CCc3c([nH]c4ccc(OC)cc34)[C@@](C(=O)OC)(c3cc4c(cc3OC)N(C)C3C(O)(C(=O)OC)[C@H](OC(C)=O)[C@]5(CC)C=CCN6CC[C@]43[C@@H]65)C2)C1 (stereo partly drawn) [Compound 22a, 10′-methoxyanhydrovinblastine] :: Condition not met
4. CCC1=C[C@@H]2CN(CCc3c([nH]c4ccc(Br)cc34)[C@@](C(=O)OC)(c3cc4c(cc3OC)N(C)C3C(O)(C(=O)OC)[C@H](OC(C)=O)[C@]5(CC)C=CCN6CC[C@]43[C@@H]65)C2)C1 (stereo partly drawn) [Compound 17a, 10′-bromoanhydrovinblastine] :: Condition met
5. CCC1=C[C@@H]2CN(CCc3c([nH]c4ccc(SC)cc34)[C@@](C(=O)OC)(c3cc4c(cc3OC)N(C)C3C(O)(C(=O)OC)[C@H](OC(C)=O)[C@]5(CC)C=CCN6CC[C@]43[C@@H]65)C2)C1 (stereo partly drawn) [Compound 20a, 10′-thiomethylanhydrovinblastine] :: Condition met

Now for a further molecule.
**Query** Input CCC1=C[C@@H]2CN(CCc3c([nH]c4ccc(Cl)cc34)[C@@](C(=O)OC)(c3cc4c(cc3OC)N(C)C3C(O)(C(=O)OC)[C@H](OC(C)=O)[C@]5(CC)C=CCN6CC[C@]43[C@@H]65)C2)C1 (stereo partly drawn) [Compound 18a, 10′-chloroanhydrovinblastine] ; condition: IC50 strictly below 900 nM. Does it hold?
**Result** Condition met

Cited source for all entries: patent US8940754B2
